Measured values drawn from patent US20170022281A1 for this set.

Molecular target: T1, cyno PRLR (Biacore antigen) (cyno, UniProt A0A2K5WXK1 25-234)
T1 construct: also called cyPRLR
T1 sequence: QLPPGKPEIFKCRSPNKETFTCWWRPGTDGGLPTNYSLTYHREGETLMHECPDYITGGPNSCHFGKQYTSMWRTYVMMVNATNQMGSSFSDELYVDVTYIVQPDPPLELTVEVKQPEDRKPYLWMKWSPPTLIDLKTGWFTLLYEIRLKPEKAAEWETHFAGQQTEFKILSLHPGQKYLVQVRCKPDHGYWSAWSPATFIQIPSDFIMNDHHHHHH
Test: SPR Biacore
OBSERVATION_TYPE: kon

BINDER: Ab48 (antibody, human IgG1, kappa, V domains shown, humanized from Ab8; G1; also called Ab3 HC.1a and Ab3 LC.1a) VH: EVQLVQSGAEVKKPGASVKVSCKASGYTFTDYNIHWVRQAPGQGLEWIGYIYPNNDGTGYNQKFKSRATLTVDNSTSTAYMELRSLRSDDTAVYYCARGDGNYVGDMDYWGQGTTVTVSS VL: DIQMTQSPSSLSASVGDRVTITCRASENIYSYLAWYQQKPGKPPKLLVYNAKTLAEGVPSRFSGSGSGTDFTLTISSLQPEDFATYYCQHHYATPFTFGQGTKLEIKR
RESULT: 576000 M⁻¹ s⁻¹
//
BINDER: Ab19 (antibody, human IgG1, kappa, V domains shown, humanized from Ab6; G1; also called Ab1 HC.1a and Ab1 LC.1a) VH: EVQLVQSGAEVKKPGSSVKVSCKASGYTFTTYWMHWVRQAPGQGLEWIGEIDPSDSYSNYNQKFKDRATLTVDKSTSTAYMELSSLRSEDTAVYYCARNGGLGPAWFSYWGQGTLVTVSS VL: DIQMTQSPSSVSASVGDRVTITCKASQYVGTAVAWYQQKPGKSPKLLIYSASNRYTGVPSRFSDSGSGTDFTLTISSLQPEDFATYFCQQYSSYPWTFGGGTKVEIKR
RESULT: 1.05e+06 M⁻¹ s⁻¹
//
BINDER: Ab6 (antibody, V domains shown, murine monoclonal, isotype G1; also called murine Ab6) VH: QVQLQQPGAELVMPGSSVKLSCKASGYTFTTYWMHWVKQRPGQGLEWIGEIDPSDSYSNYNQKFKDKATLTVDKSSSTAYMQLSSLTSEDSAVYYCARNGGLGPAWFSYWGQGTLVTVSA VL: DIVMTQSQKFMSTTVGDRVSITCKASQYVGTAVAWYQQKPGQSPKLLIYSASNRYTGVPDRFTDSGSGTDFTLTISNLQSEDLADYFCQQYSSYPWTFGGGTKLEIK
RESULT: 1.36e+06 M⁻¹ s⁻¹
